Target: truncated human 11β-HSD-1 enzyme (24-287AA) (Homo sapiens, UniProt P28845)
Construct: truncated human 11β-HSD-1 enzyme (24-287AA); made in house; host or cells: E. coli (lysate)
Sequence (P28845 24-287): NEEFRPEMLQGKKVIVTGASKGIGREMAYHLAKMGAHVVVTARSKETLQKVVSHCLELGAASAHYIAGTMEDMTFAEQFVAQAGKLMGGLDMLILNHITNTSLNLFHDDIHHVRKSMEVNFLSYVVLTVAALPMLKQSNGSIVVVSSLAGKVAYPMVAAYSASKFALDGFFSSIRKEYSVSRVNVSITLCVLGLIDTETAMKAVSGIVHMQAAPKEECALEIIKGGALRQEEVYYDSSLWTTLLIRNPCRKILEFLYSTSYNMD
Assay: Human 11β-HSD-1 enzymatic SPA assay
Type: biochemical
Conditions: human enzyme, SPA
assay-endpoint: pIC50
In textbook form, pIC50 equals minus log to base ten of the concentration in mol/L.

Consider the following illustrative entries.
# molecule, pIC50
records = [
    ("CC(C)(C(=O)N[C@@H]1[C@@H]2C[C@@H]3C[C@H]1C[C@@](C(N)=O)(C3)C2)N1CCN(c2ccccn2)CC1", 7.43),
    ("CC12CCC(N3CC(COc4ccc(C#N)cn4)C(C)(C)C3=O)(CC1)CC2 (centres unmarked)", 7.11),
    ("NC(=O)C12CC3CC(C1)C(NC(=O)C1(Oc4ccc(Cl)cc4)CCC1)C(C3)C2 (centres unmarked)", 7.05),
    ("CCN(CC)S(=O)(=O)c1cc(Cl)ccc1OC(C)(C)C(=O)NC1C2CC3CC1CC(C(N)=O)(C3)C2 (centres unmarked)", 7.17),
    ("CC1(C(=O)N[C@@H]2[C@@H]3C[C@@H]4C[C@H]2C[C@@](C(N)=O)(C4)C3)CCN(Cc2ccccc2Cl)C1=O (some centres unmarked)", 7.64),
]

// query Any idea what its pIC50 is? The molecule is NC(=O)OC12CC3CC(C1)C(NC(=O)CN1CCN(c4ccc(C(F)(F)F)cn4)CC1)C(C3)C2 (centres unmarked)
// result 6.82

// query Any idea what its pIC50 is? The molecule is CC(C)(Oc1ccc(Cl)cc1)C(=O)NC1C2CC3CC1CC(CS(=O)(=O)NCc1ccc(C(=O)O)cc1)(C3)C2 (centres unmarked)
// result 7.32

---

Target: truncated human 11β-HSD-1 enzyme (24-287AA) (Homo sapiens)
Construct: truncated human 11β-HSD-1 enzyme (24-287AA); made in house; host or cells: E. coli (lysate)
Assay: Human 11β-HSD-1 enzymatic SPA assay
Type: biochemical
Conditions: human enzyme, SPA
Label true (1) when IC50 is strictly below 90 nM; at or above that, label false (0).

# compound, answer-label
rows = [
    ("CC(C)(Oc1ccc(O)cc1)C(=O)N[C@@H]1[C@@H]2C[C@@H]3C[C@H]1C[C@@](C(N)=O)(C3)C2", "true (1)"),
    ("CC1(C)C(=O)N(C2CCCCCC2)CC1COc1ccccc1 (stereo not drawn)", "false (0)"),
    ("O=C(O)C12CC3CC(C1)C(NC(=O)C1(c4ccccc4)CC1)C(C3)C2 (stereo not drawn)", "false (0)"),
]

// query Given the entry "NC(=O)[C@]12C[C@@H]3C[C@H](C1)[C@@H](NC(=O)C1(c4ccc(Cl)cc4)CC1)[C@@H](C3)C2" , would its reported IC50 be below 90 nM?
// result true (1)

// query Given the entry "CC(C)(Oc1ccc(Cl)cc1)C(=O)N[C@@H]1[C@@H]2C[C@@H]3C[C@H]1C[C@@](CS(N)(=O)=O)(C3)C2" , would its reported IC50 be below 90 nM?
// result false (0)

// query Given the entry CC(C)(Oc1ccc(OC(F)(F)F)cc1)C(=O)NC1C2CC3CC1CC(C(N)=O)(C3)C2 (stereo not drawn) , would its reported IC50 be below 90 nM?
// result true (1)

// query Given the entry "CC(C)(Oc1ccc(-n2cccn2)cn1)C(=O)N[C@@H]1[C@@H]2C[C@@H]3C[C@H]1C[C@@](C(N)=O)(C3)C2" , would its reported IC50 be below 90 nM?
// result true (1)

// query Given the entry CC1(C)C(=O)N(C2C3CC4CC2CC(C(N)=O)(C4)C3)CC1COc1ccc(C(F)(F)F)cn1 (stereo not drawn) , would its reported IC50 be below 90 nM?
// result true (1)

---

Target: human 11β-HSD-2 (Homo sapiens, UniProt P80365)
Sequence (P80365 whole entry): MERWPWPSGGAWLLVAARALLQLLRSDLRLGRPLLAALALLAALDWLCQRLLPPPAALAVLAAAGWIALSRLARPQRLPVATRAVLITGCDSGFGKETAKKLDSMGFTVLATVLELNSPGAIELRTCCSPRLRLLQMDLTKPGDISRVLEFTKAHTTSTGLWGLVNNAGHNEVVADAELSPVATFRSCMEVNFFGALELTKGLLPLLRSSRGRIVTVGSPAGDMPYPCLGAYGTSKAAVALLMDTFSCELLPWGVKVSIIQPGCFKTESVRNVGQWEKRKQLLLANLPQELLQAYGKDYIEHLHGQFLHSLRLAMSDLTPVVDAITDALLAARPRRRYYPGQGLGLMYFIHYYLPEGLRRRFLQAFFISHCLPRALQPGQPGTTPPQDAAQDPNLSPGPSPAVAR
Experiment: Human 11β-HSD-2 enzymatic SPA assay
Format: biochemical
Settings: human enzyme, SPA
pIC50: −log10 of the molar value.
Each item that follows carries a reported pIC50.

Consider the following illustrative entries.
# compound, pIC50
records = [
    ("CC(C)(Oc1ccc(Cl)cc1)C(=O)NC1C2CC3CC1CC(Cc1nn[nH]n1)(C3)C2 (stereo not drawn)", "< 4.00"),
    ("CN(CC1CN(C2CCCCCC2)C(=O)C1(C)C)c1ccccc1F (stereo not drawn)", "< 5.00"),
    ("CC(C(=O)NC1C2CC3CC1CC(NS(C)(=O)=O)(C3)C2)N1CCN(c2ccc(C(F)(F)F)cn2)CC1 (stereo not drawn)", "< 4.52"),
    ("CC1(C)C(=O)N(C2C3CC4CC2CC(C(N)=O)(C4)C3)CC1COc1ccc(-n2cncn2)cc1 (stereo not drawn)", 5.80),
    ("O=C(O)C12CC3CC(C1)C(NC(=O)C1(c4ccc(Cl)cc4)CCC1)C(C3)C2 (stereo not drawn)", "< 5.00"),
]

// query Any idea what its pIC50 is? The compound is CC1CN(c2ccccn2)CCN1C(C)(C)C(=O)NC1C2CC3CC1CC(C(=O)O)(C3)C2 (stereo not drawn)
// result < 4.52

---

Each item that follows carries a reported IC50.
Target: human 11β-HSD-2 (Homo sapiens)
Experiment: Human 11β-HSD-2 enzymatic SPA assay
Format: biochemical
Conditions: human enzyme, SPA

Consider the following illustrative entries.
# compound, assay-endpoint, result
data = [
    ("O=C(CN1CCN(c2ccc(C(F)(F)F)cn2)CC1)NC1C2CC3CC1CC(F)(C3)C2 (stereo not drawn)", "IC50", "> 10 µM"),
    ("CC1(C)C(=O)N(C2CCCCCC2)CC1COc1ccccc1 (stereo not drawn)", "IC50", "> 8.75 µM"),
    ("CC(C)(Oc1ccc(F)cc1Cl)C(=O)N[C@@H]1[C@@H]2C[C@@H]3C[C@H]1C[C@@](S(N)(=O)=O)(C3)C2", "IC50", "> 100 µM"),
]

// query Any idea what its IC50 is? The compound is "CC(C)(C(=O)N[C@@H]1[C@@H]2C[C@@H]3C[C@H]1C[C@@](C(=O)O)(C3)C2)c1ccccc1"
// result > 10 µM

// query Any idea what its IC50 is? The compound is "CC(C)(C(=O)N[C@@H]1[C@@H]2C[C@@H]3C[C@H]1C[C@@](C(N)=O)(C3)C2)c1ccc(-c2cccnc2)cc1"
// result 44 µM

// query Any idea what its IC50 is? The compound is CC(C)(Oc1ccc(OC(F)(F)F)cc1)C(=O)NC1C2CC3CC1CC(C(N)=O)(C3)C2 (stereo not drawn)
// result 2.6 µM

// query Any idea what its IC50 is? The compound is CCN(CC)S(=O)(=O)c1cc(Cl)ccc1OC(C)(C)C(=O)NC1C2CC3CC1CC(C(N)=O)(C3)C2 (stereo not drawn)
// result 65 µM

---

Each item that follows carries a reported pIC50.
Molecular target: human 11β-HSD-2 (Homo sapiens, UniProt P80365)
Assay: Human 11β-HSD-2 enzymatic SPA assay
Type: biochemical
Details: human enzyme, SPA
pIC50: −log10 of the molar value.

# compound, pIC50
data = [
    ("NC(=O)OC12CC3CC(C1)C(NC(=O)CN1CCN(c4ccc(C(F)(F)F)cn4)CC1)C(C3)C2 (stereo not drawn)", "< 5.00"),
    ("CC(C)(C(=O)NC1C2CC3CC1CC(C(=O)O)(C3)C2)N1CCC(F)C1 (stereo not drawn)", "< 5.00"),
]

// query Any idea what its pIC50 is? The compound is CC(C(=O)N[C@@H]1[C@@H]2C[C@@H]3C[C@H]1C[C@@](O)(C3)C2)N1C[C@@H](C)O[C@@H](C)C1 (stereo partly drawn)
// result < 5.00

---

Each item that follows carries a reported IC50.
Target: human 11β-HSD-2 (Homo sapiens)
Experiment: Human 11β-HSD-2 enzymatic SPA assay
Assay type: biochemical
Conditions: human enzyme, SPA

Consider the following illustrative entries.
# molecule, IC50
rows = [
    ("CC(C)(Oc1ccc(-n2cccn2)cn1)C(=O)N[C@@H]1[C@@H]2C[C@@H]3C[C@H]1C[C@@](C(N)=O)(C3)C2", "> 100 µM"),
    ("NC(=O)[C@]12C[C@@H]3C[C@H](C1)[C@@H](NC(=O)C1(c4ccc(Cl)cc4)CC1)[C@@H](C3)C2", "> 30 µM"),
    ("CC(C(=O)NC1C2CC3CC1CC(O)(C3)C2)N1CCCCCC1 (stereo not shown)", "> 10 µM"),
]

Now let's try a different one.
// query Any idea what its IC50 is? The molecule is "CC(C)(OCc1ccc(C(F)(F)F)cc1)C(=O)N[C@@H]1[C@@H]2C[C@@H]3C[C@H]1C[C@@](C(N)=O)(C3)C2"
// result > 10 µM
